Test Target: UniProt:P10275
Protocol: Antagonist activity at human androgen receptor by cell based assay
Assay type: functional
pIC50: −log10 of the molar value.
Quantity Measured: pIC50

• CC1(C)CN(Cc2nc3ccccc3s2)C(=O)C1Oc1ccc(C#N)c(C(F)(F)F)c1 (racemic) = 7.29
• COC(=O)c1csc(CN2CC(C)(C)C(Oc3ccc(C#N)c(C(F)(F)F)c3)C2=O)n1 (racemic) = < 6.05
• CC1(C)CN(Cc2cccc(O)c2)C(=O)C1Oc1ccc(C#N)c(C(F)(F)F)c1 (racemic) = < 6.22

###

Quick reference for IC50 among some compounds
Test Target: Androgen receptor (Homo sapiens, UniProt P10275)
Protocol: Antagonist activity at human androgen receptor by cell based assay
Type: functional
Quantity Measured: IC50

• CCCN1CC(C)(C)C(Oc2ccc(C#N)c(C(F)(F)F)c2)C1=O (single isomer, unassigned; (+)) = 83 nM
• CC1(C)CN(Cc2ccc(F)cc2)C(=O)C1Oc1ccc(C#N)c(C(F)(F)F)c1 (racemic) = 199 nM
• CC1(C)CN(Cc2ccncc2)C(=O)C1Oc1ccc(C#N)c(C(F)(F)F)c1 (racemic) = > 600 nM
• CCCC(C)N1CC(C)(C)C(Oc2ccc(C#N)c(C(F)(F)F)c2)C1=O (racemic) = 6 nM
• CCCCN1CC(C)(C)C(Oc2ccc(C#N)c(C(F)(F)F)c2)C1=O (racemic) = 16 nM
• CSc1ccc(CN2CC(C)(C)C(Oc3ccc(C#N)c(C(F)(F)F)c3)C2=O)cc1 (single isomer, unassigned; (+)) = 28 nM
• CCC(C)N1CC(C)(C)C(Oc2ccc(C#N)c(C(F)(F)F)c2)C1=O (single isomer, unassigned; (+)) = 32 nM
• CC1(C)CNC(=O)C1Oc1ccc(C#N)c(C(F)(F)F)c1 (racemic) = 82 nM

###

Test Target: Androgen receptor (Homo sapiens, UniProt P10275)
Sequence (P10275 whole entry): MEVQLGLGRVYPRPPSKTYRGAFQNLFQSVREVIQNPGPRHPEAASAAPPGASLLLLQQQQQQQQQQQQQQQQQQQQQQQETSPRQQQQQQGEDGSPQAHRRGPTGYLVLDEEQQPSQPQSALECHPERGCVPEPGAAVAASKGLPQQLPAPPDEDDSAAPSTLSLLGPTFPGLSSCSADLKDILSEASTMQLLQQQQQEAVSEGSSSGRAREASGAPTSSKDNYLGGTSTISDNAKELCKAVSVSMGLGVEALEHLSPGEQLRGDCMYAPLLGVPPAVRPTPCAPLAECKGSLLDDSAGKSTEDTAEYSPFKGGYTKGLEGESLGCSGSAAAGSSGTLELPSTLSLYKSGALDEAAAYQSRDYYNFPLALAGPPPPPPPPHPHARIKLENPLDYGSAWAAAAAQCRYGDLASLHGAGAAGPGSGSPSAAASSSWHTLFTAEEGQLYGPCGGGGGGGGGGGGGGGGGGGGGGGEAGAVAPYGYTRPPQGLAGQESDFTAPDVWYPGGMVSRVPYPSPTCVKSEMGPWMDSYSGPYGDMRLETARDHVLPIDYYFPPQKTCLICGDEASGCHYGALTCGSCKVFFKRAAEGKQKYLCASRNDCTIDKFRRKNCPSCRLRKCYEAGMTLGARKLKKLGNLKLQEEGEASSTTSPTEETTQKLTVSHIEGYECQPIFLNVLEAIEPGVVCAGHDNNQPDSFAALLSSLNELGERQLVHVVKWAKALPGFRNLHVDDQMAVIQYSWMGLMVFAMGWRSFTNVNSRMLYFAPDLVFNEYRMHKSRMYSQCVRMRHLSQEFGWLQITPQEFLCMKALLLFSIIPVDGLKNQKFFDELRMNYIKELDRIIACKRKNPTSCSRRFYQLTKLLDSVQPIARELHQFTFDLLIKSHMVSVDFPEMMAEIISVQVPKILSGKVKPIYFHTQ
Protocol: Binding affinity to human androgen receptor
pIC50: −log10 of the molar value.
Label class 1 for high-side pIC50 (at or above 7) and class 0 for low-side pIC50 (below it).

* CCCC(C)N1CC(C)(C)C(Oc2ccc(C#N)c(C(F)(F)F)c2)C1=O (racemic) | class 0
* CCC(C)N1CC(C)(C)C(Oc2ccc(C#N)c(C(F)(F)F)c2)C1=O (stereo in doubt; 18) | class 0
* CCNC(=O)CN1CC(C)(C)C(Oc2ccc(C#N)c(C(F)(F)F)c2)C1=O (racemic) | class 0
* CC1(C)CN(Cc2ccccc2)C(=O)C1Oc1ccc(C#N)c(C(F)(F)F)c1 (racemic) | class 1
* COc1ccc(CN2CC(C)(C)C(Oc3ccc(C#N)c(C(F)(F)F)c3)C2=O)cc1 (racemic) | class 0

###

Test Target: Androgen receptor (Homo sapiens)
Sequence (P10275 whole entry): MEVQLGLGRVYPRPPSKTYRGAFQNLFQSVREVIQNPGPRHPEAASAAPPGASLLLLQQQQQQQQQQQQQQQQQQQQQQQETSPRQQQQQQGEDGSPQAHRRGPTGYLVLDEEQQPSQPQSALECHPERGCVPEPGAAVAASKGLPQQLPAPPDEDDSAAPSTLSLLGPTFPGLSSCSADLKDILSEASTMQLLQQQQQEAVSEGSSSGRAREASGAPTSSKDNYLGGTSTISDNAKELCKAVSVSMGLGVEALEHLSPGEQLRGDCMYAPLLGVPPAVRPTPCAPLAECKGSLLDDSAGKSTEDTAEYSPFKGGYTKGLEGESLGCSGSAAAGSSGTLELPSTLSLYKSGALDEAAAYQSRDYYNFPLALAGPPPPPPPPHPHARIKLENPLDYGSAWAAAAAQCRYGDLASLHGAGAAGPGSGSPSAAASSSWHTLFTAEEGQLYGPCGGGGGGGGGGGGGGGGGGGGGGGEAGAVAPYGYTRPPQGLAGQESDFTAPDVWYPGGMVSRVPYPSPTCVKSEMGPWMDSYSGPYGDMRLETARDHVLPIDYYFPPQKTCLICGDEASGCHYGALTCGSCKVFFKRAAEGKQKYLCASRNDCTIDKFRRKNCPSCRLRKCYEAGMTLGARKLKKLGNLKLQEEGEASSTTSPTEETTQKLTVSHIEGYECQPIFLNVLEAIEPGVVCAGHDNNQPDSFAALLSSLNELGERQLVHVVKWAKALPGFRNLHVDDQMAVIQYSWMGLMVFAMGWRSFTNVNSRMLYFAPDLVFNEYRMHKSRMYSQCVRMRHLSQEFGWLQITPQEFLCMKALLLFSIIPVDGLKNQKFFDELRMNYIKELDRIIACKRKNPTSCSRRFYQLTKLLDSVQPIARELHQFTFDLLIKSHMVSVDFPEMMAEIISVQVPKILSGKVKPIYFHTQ
Protocol: Binding affinity to human androgen receptor
pIC50: −log10 of the molar value.
Listing of recorded pIC50 by entry.
Quantity Measured: pIC50

- CCCCN1CC(C)(C)C(Oc2ccc(C#N)c(C(F)(F)F)c2)C1=O (single isomer, unassigned; (+)): 7.04
- CC1(C)CN(Cc2ccccc2)C(=O)C1Oc1ccc(C#N)c(C(F)(F)F)c1 (single isomer, unassigned; (+)): 7.00
- CC1(C)COC(=O)[C@@H]1Oc1ccc(C#N)c(C(F)(F)F)c1: 7.15

The origin of these recorded values is ChEMBL document CHEMBL1828515.
